B1: CPEB3 Ribozyme (parent)
chain: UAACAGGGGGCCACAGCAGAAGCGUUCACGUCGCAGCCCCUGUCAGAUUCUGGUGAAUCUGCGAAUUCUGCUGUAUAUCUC

# Variants of: B1
# METHOD DESCRIPTION: self-cleavage, relative activity (ratio to wild type); higher = more cleavage; in vitro, sequencing
Overview of recorded self-cleavage for various variants
ENDPOINT: self-cleavage

VARIANT CODE	DATA VALUE
A35G C68A	1.19
C27G A64G	0.23
G6U A21G	0.29
U49C C71G	0.19
A56G G73U	1.15
G9A U43A	0.39
G10A A65C	0.09
U25C C27A	0.41
U43C G52C	0.77
A35U U72A	0.31
C39U U43C	0.35
A45U U76C	0.49
A13G A15U	0.43
A3G U31C	0.84
G8A A15C	0.31
A15G A20G	0.47
A57G A77G	0.87
G55U U66C	0.49
G10U	0.23
C23G U54G	0.26
G8A U31G	0.41
G53A U58A	0.48

Source listed as the RNAGym collection of RNA variant scans (doi:10.1093/nar/gkz1192).
